IC50 for Serine/threonine-protein kinase pim-1 (Homo sapiens) - collated from the literature.

compound | system | uom | relation.qualifier | IC50
C[C@H]1C[C@@H](c2ccncc2NC(=O)c2ccc(F)c(-c3c(F)cc4c(c3F)OCC[C@]4(C)O)n2)C[C@@H](N)[C@@H]1O | Serine/threonine-protein kinase pim-1 (Homo sapiens) | nM | = | 0.25
NC1CC(C(F)(F)F)CN(c2ccncc2NC(=O)c2csc(-c3c(F)cccc3F)n2)C1 (stereo not shown) | Serine/threonine-protein kinase pim-1 (Homo sapiens) | nM | = | 1
COc1cccc2ccc(-c3nnc4ccc([C@@H](N5CC[C@](N)(CF)C5)C(F)(F)F)cn34)nc12 (single isomer, unassigned) | Serine/threonine-protein kinase pim-1 (Homo sapiens) | nM | = | 0.95
COc1ccc(C(=O)c2nc3cc(O)c(O)cc3s2)cc1F | Serine/threonine-protein kinase pim-1 (Homo sapiens) | nM | = | 317
Brc1c(Br)c(Br)c2[nH]c(NC3CCCNCC3)nc2c1Br (stereo not shown) | Serine/threonine-protein kinase pim-1 (Homo sapiens) | nM | = | 3.5
C[C@@H]1C[C@H]1c1cc2ccc(C(=O)Nc3cnccc3N3C[C@@H](N)[C@H](O)[C@@H](C)C3)nc2o1 (racemic) | Serine/threonine-protein kinase pim-1 (Homo sapiens) | nM | ≤ | 10
N[C@H]1CCCN(c2ccnc3ccc(-c4cccc(-c5nccs5)n4)cc23)C1 | Serine/threonine-protein kinase pim-1 (Homo sapiens) | nM | = | 10

----------
IC50 for Serine/threonine-protein kinase pim-1 (Homo sapiens) - collated from the literature.

mol | relation.qualifier | IC50, nM
COc1ccc2ccc(-c3nnc4ccc([C@H](N5CC[C@](C)(N)C5)C(F)(F)F)cn34)nc2c1 | = | 0.24
CCc1cc(-c2cnc3ccc(NC45CCC(C(C)(C)O)(CC4)CC5)nn23)n[nH]1 | < | 10
Cc1cc(F)c(-c2nc(C(=O)Nc3cnccc3[C@H]3C[C@@H](N)[C@H](O)[C@@H](C)C3)c(N)cc2F)c(F)c1 | = | 0.03
Cn1nccc1-c1ccc2cc(N)c(C(=O)Nc3cnccc3N3CCC[C@H](N)C3)nc2c1 | ≤ | 100

----------
pIC50: −log10 of the molar value.
pIC50 for Serine/threonine-protein kinase pim-1 (Homo sapiens) - collated from the literature.
Assign class by pIC50: not lower than 10 means T; lower than 10 means F.

mol | class.assignment
CCOC(C)(C)c1cc(F)c(-c2nc(C(=O)Nc3cnccc3N3C[C@@H](N)[C@H](O)[C@@H](C)C3)ccc2F)c(F)c1 | T
C[C@H]1C[C@@H](c2ccncc2NC(=O)c2ccc(F)c(-c3c(F)cc(OCC4CCOCC4)cc3F)n2)C[C@@H](N)[C@@H]1O | T
Brc1c(Br)c(Br)c2[nH]c(NCCCN3CCCCC3)nc2c1Br | F
CCN1CCN(Cc2ccc(Nc3ncc(F)c(-c4cc(F)c5c(c4)C4(CCCC4)C(C)=N5)n3)nc2)CC1 | F
O=C1Nc2cc(S(=O)(=O)Cc3c(Cl)cccc3Cl)ccc2S/C1=C\c1ccc(O)c([N+](=O)[O-])c1 | F
C[C@H]1C[C@@H](c2ccncc2NC(=O)c2ccc(F)c(-c3c(F)cc(OCC4(C#N)CCOCC4)cc3F)n2)C[C@@H](N)[C@@H]1O | T
CCOc1cc(F)c(-c2nc(C(=O)Nc3cnccc3N3C[C@@H](N)[C@H](O)[C@@H](C)C3)ccc2F)c(F)c1 | T
C[C@H]1CN(c2ccncc2NC(=O)c2ccc(F)c(-c3c(F)cc(C4(O)CC4)cc3F)n2)C[C@@H](N)[C@@H]1O | T
CO[C@H](C)COc1ccc2cc(F)c(-c3nnc4ccc([C@@H](N5CC[C@H](N)C5)C(F)(F)F)cn34)nc2c1 | F

----------
pIC50 for Serine/threonine-protein kinase pim-1 (Homo sapiens, UniProt P11309) - collated from the literature.
pIC50: −log10 of the molar value.

compound | relation.qualifier | pIC50
CC(O)c1ccc2cc(N)c(C(=O)Nc3cnccc3N3CCC[C@H](N)C3)nc2c1 (stereo partly shown) | ≥ | 7.00
CCOc1cc(F)c(-c2nc(C(=O)Nc3cnccc3[C@@H]3C[C@H](C)C[C@H](N)C3)ccc2F)c(F)c1 | = | 10.70
COc1cc(O)c(C(=O)c2nc3cc(O)c(O)cc3s2)cc1O | = | 6.76
COC(=O)N[C@@H]1[C@H](N)CN(c2ccncc2NC(=O)c2nc3cc(C4CCOCC4)ccc3cc2N)C[C@@H]1C | ≥ | 7.00
Cc1nc(Nc2ncc3ccc4ncc(C(C)C)n4c3n2)ccc1N1CCNCC1.Cl | > | 7.30
C[C@@H]1C[C@H](N)C[C@H](c2ccncc2NC(=O)c2ccc(F)c(-c3c(F)cc(O[C@H]4CCCOC4)cc3F)n2)C1 | = | 11.00
C[C@@H]1C[C@H](N)C[C@H](c2ccncc2NC(=O)c2ccc(F)c(-c3c(F)cc([S@@+](C)[O-])cc3F)n2)C1 | = | 9.85
N[C@@H]1CN(c2ccnc3ccc(-c4cccc(-c5nccs5)n4)cc23)CC[C@H]1F | = | 7.66
Brc1c(Br)c(Br)c2[nH]c(N[C@H]3COC[C@@H]3N3CCCCC3)nc2c1Br | = | 7.66
OCC1CCCN(c2cccc3ccc(-c4nnc5ccccn45)nc23)C1 (stereo not shown) | = | 7.82
N#Cc1ccc2ccc(-c3nnc4ccc([C@@H](N5CC[C@H](N)C5)C(F)(F)F)cn34)nc2c1 | = | 9.14
Cc1cc(Nc2ncc3ccc4ncc(C5CCCC5)n4c3n2)ncc1N1CCOCC1 | > | 7.30
Nc1ccc(-c2cccc(S(N)(=O)=O)c2)nc1-c1cc2c(N3CCC[C@H](N)C3)ccnc2cn1 | = | 8.70
N[C@@H]1CCN(c2cccc3ccc(-c4nnc5ccccn45)nc23)C[C@@H]1F (relative stereo) | = | 7.47
N[C@H]1CCCN(c2cccc3ccc(-c4nnc5ccccn45)nc23)C1 | = | 6.57
Nc1cc2ccc(C3CCNCC3)cc2nc1C(=O)Nc1cnccc1N1CCC[C@H](N)C1 | ≥ | 7.00

----------
pIC50: −log10 of the molar value.
pIC50 for Serine/threonine-protein kinase pim-1 (Homo sapiens) - collated from the literature.
parameter.measured: pIC50

mol | parameter.measured | result
N#CCc1ccc2cc(N)c(C(=O)Nc3cnccc3N3CCC[C@H](N)C3)nc2c1 | pIC50 | ≥ 7.00
CCc1ccc2cc(N)c(C(=O)Nc3cncc(C)c3N3C[C@@H](N)[C@H](O)[C@@H](C)C3)nc2c1 | pIC50 | ≥ 7.00
CCc1cc(-c2cnc3ccc(NC45CCC(O)(CC4)C5)nn23)c[nH]1 | pIC50 | 7.00 to 8.00
CCNc1nccc(-c2ccc3[nH]c(=O)c4[nH]cc(C(=O)OCC)c4c3c2)n1 | pIC50 | 5.00 to 6.00
FC(F)(F)c1cccc(-c2nnc3ccc(NC4CC4)nn23)c1 | pIC50 | > 6.00

----------
pIC50: −log10 of the molar value.
pIC50 for Serine/threonine-protein kinase pim-1 (Homo sapiens, UniProt P11309) - collated from the literature.

molecule | relation.qualifier | pIC50
N[C@H]1C[C@@H](F)CN(c2ccncc2NC(=O)c2csc(-c3c(F)cccc3F)n2)C1 | = | 8.40
Nc1ccc(-c2c(F)cccc2F)nc1-c1cc2c(N3CCC[C@H](N)C3)ccnc2cn1 | = | 9.00
CCOc1ccc(F)c(-c2nc(C(=O)Nc3cnccc3[C@@H]3C[C@H](C)C[C@H](N)C3)ccc2F)c1F | = | 10.22
N[C@H]1C[C@@H](C(F)(F)F)CN(c2ccncc2NC(=O)c2csc(-c3c(F)cccc3F)n2)C1 | = | 9.00
CCOc1ccc(F)c(-c2nc(C(=O)Nc3cnccc3[C@@H]3C[C@H](C)C[C@H](N)C3)cs2)c1F (stereo in doubt) | = | 9.00
N[C@H]1CCCN(c2ccnc3ccc(-c4cccc(-c5c(F)cccc5F)n4)cc23)C1 | = | 7.80
N[C@H]1CCN([C@H](c2ccc3nnc(-c4ccc5ccc(C6CC6)cc5n4)n3c2)C(F)(F)F)C1 (single isomer, unassigned) | = | 9.51
CO[C@H](C)COc1ccc2ccc(-c3nnc4ccc([C@H](N5CC[C@](C)(N)C5)C(F)(F)F)cn34)nc2c1 | = | 9.02
NCC(O)CNc1nc2c(Br)c(Br)c(Br)c(Br)c2[nH]1 (centres unmarked) | = | 7.88
C[C@H]1CN(c2ccncc2NC(=O)c2ccc(F)c(-c3c(F)cc(OC4CCOCC4)cc3F)n2)C[C@@H](N)[C@@H]1O | = | 11.00
C[C@@H]1C[C@H](N)C[C@H](c2ccncc2NC(=O)c2ccc(F)c(-c3c(F)cc(-c4ccnnc4)cc3F)n2)C1 | = | 9.92
C[C@@H]1C[C@H](N)CN(c2ccncc2NC(=O)c2nc3cc(N4CCOCC4)ccc3cc2N)C1 | ≥ | 7.00
CNCCCN(Cc1ccccc1)c1nc2c(Br)c(Br)c(Br)c(Br)c2[nH]1 | = | 7.34
C[C@@H]1C[C@H](N)C[C@H](c2ccncc2NC(=O)c2ccc(F)c(-c3c(F)cc(OCC4CCOCC4)cc3F)n2)C1 | = | 10.70
CC1(C)CN(c2cccc3ccc(-c4nnc5ccccn45)nc23)CCN1 | = | 7.66
Cc1cc(Nc2ncc3ccc4ncc(C(C)C)n4c3n2)ncc1N1CCNCC1.Cl | > | 7.30
N[C@H]1CCCN(c2ccnc3ccc(-c4nccc(-c5nccs5)n4)cc23)C1 | = | 8.15
N[C@@H]1CN(c2ccncc2NC(=O)c2csc(-c3c(F)cccc3F)n2)CC(F)(F)C1 | = | 8.70
N[C@H]1CCCN(c2ccncc2NC(=O)c2csc(-c3ccccc3)n2)C1 | = | 8.70
CS(=O)(=O)c1ccc(-c2ccc(N)c(-c3cc4c(N5CCC[C@H](N)C5)ccnc4cn3)n2)cc1 | = | 8.70
